molecular target: purified Human plasma Kallikrein (Homo sapiens (Human), UniProt P03952); assay: Kallikrein Assay; format: biochemical; settings: purified Human plasma Kallikrein 0.5 nM; substrate Acetyl-K-P-R-AFC; 50 mM HEPES pH 7.4; Ki from IC50 by Cheng Prusoff
Sequence (P03952 391-638): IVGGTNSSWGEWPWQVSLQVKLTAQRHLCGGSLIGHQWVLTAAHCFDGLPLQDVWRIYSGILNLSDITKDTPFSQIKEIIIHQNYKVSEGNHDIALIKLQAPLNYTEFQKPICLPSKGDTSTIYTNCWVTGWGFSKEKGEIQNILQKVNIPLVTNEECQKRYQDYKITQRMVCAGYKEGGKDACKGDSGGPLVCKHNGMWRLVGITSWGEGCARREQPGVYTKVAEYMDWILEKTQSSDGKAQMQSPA
Sequence (P03952 20-390 partner): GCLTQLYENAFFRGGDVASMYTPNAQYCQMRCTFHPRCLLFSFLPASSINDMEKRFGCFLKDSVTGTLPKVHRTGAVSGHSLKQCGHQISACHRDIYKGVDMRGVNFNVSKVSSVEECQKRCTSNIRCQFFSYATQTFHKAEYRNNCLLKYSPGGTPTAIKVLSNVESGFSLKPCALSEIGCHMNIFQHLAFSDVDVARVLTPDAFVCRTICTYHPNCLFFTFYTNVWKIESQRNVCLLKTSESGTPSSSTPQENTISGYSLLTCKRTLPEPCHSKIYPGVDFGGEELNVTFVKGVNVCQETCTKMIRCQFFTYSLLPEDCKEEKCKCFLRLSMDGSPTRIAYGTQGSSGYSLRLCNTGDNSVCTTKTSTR
OBSERVATION_TYPE: Ki (nM)

>  <COMPOUND>
COC(=O)Nc1ccc2c(c1)NC(=O)CCCCC(c1ccc(-c3c(F)ccc(Cl)c3F)c[n+]1[O-])c1cc-2[n+]([O-])cc1F (centres unmarked) [Example 82]

>  <Ki, nM>
9.58

$$$$

[1] COC(=O)Nc1ccc2c(c1)NC(=O)CCCCC(c1ccc(-c3c(F)cccc3OC(F)(F)F)c[n+]1[O-])c1nc-2c(C)[nH]1 (single isomer, unassigned) [Example 131]
[2] O=C1CCCCC(c2ccc(-c3cc(F)ccc3-n3cc(Cl)nn3)c[n+]2[O-])c2cccc(c2)-c2cc(F)ccc2N1 (single isomer, unassigned) [Example 90-a]
[3] COC(=O)Nc1ccc2c(c1)NC(=O)CCCC[C@H](c1ccc(-c3cc(Cl)ccc3-n3cnnn3)c[n+]1[O-])c1cc-2ncc1F (single isomer, unassigned) [Example 71]
[4] CCc1[nH]c2nc1-c1ccc(NC(=O)OC)cc1NC(=O)[C@H](C)CCC[C@@H]2c1ccc(-c2c(F)cccc2OC(F)F)c[n+]1[O-] (single isomer, unassigned) [Example 146-a]
Sort by Ki, descending. Quick reminder: the answer is the labels in the order asked.
2, 1, 4, 3

Recorded values, source patent US10214512B2.
